Hello, the source for this data is paper PMC5540273, in case you need it.

Tested on: TYRO3
Conditions: concentration: 1 μM, replicates: in singlicate; n = 1;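 further: KINOMEscan kinase panel screen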
Readings of %Inh for the listed molecules
readout_label: %Inh (%)

COc1ccc(Nc2nccc(N3CCC(NC(=O)Nc4cccc(C(C)=O)c4)C3)n2)cc1 (stereo not drawn) : 6
Cl.Oc1cccc(Nc2ccnc3cc(-c4ccncc4)ccc23)c1 : 82
CCn1cnc2c(N)ncnc21 : 32
O=C(c1ccc(-c2cc(-c3c[nH]nc3-c3ccccn3)ccn2)cc1)N1CCOCC1 : 0
Cc1ccc(C(=O)NCC(N)=O)cc1-n1c(C)cc(OCc2ccc(F)cc2F)c(Br)c1=O : 3
COCCNC(=O)c1ccc(-c2cc(C(=O)NC3CC3)cc(F)c2C)cc1 : 21
NS(=O)(=O)CCc1cccc(Nc2nccc(-c3c(-c4cccc(NC(=O)c5c(F)cccc5F)c4)nn4ccccc34)n2)c1 : 100
COc1cc2c(cc1OCCN1CCN(C)CC1)ncc1c3ccc(C#N)cc3[nH]c21 : 0
Nc1nc(-c2ccc3c(N)n[nH]c3c2)cc(N2CCCC2)n1 : 0

----------
System: IKK-epsilon
Construct: gene IKBKE
Conditions: concentration: 1 μM, replicates: in singlicate; n = 1
readout_label: %Inh (%)

COc1ccc(Nc2nccc(N3CCC(NC(=O)Nc4cc(C)ccc4C)C3)n2)cc1 (stereo not drawn) : 0
O=C(c1ccc(-c2cc(-c3c[nH]nc3-c3ccccn3)ccn2)cc1)N1CCOCC1 : 0
CC(C)(C)n1cnc2c(N)ncnc21 : 0
Cc1cn2c(=O)cc(N3CCOCC3)nc2n1Cc1cccc(Cl)c1Cl : 3
Fc1ccc(-c2nn3c(OCC(F)(F)F)cccc3c2-c2ccncc2)cc1 : 22
Cc1c(Cn2c(C)nn3c(=O)cc(N4CCOC(C)C4)nc23)cccc1C(F)(F)F (stereo not drawn) : 5
N#Cc1ccc(-c2cc(-c3c[nH]nc3-c3ccccn3)ccn2)cc1 : 0
Cl.Oc1cccc(Nc2ccnc3cc(-c4ccncc4)ccc23)c1 : 20
O=c1cc(N2CCOCC2)nc2n(Cc3cccc4ccccc34)ccn12 : 0
Cc1ccc(C(=O)NCC(N)=O)cc1-n1c(C)cc(OCc2ccc(F)cc2F)c(Br)c1=O : 0
CCc1ccnc(/C=C/c2n[nH]c3cc(Sc4ccccc4C(=O)NC)ccc23)c1 : 14
Cc1cccc(Cn2ccn3c(=O)cc(N4CCOCC4)nc23)c1 : 15

----------
Tested on: MRCKA
Conditions: concentration: 1 μM, replicates: in singlicate; n = 1
Listing of entries alongside the reported %Inh.
readout_label: %Inh (%)

Cl.Nc1ncnc2occ(-c3ccc(NC(=O)Nc4cc(C(F)(F)F)ccc4F)cc3)c12 : 11
Cc1ccc(C(=O)NCC(N)=O)cc1-n1c(C)cc(OCc2ccc(F)cc2F)c(Br)c1=O : 3
NCC(NC(=O)c1cc(-c2cn[nH]c2)c(-c2ccnc3[nH]ccc23)s1)c1ccccc1.O=C(O)C(F)(F)F.O=C(O)C(F)(F)F (centres unmarked) : 80
CCc1ccnc(/C=C/c2n[nH]c3cc(Sc4ccccc4C(=O)NC)ccc23)c1 : 0
COc1ccc(S(=O)(=O)NC2CCN(c3cc(C)nc(Nc4cccc(C#N)c4)n3)CC2)cc1.O=C(O)C(F)(F)F : 0
COc1cc2c(cc1OC[C@@H](O)CO)ncc1c3ccc(C#N)cc3[nH]c21 : 0
Cc1c2ccc(N(C)c3ccnc(Nc4cccc(S(N)(=O)=O)c4)n3)cc2nn1Cc1ccccc1.Cl.Cl : 0
COc1ccc(CNC(=O)NC2CCN(c3ccnc(Nc4ccc(OC)cc4)n3)C2)cc1 (centres unmarked) : 0
